I'd be grateful if you could share measured IC50 for these entries.
System: Plasmodium falciparum
Assay: microbe, parasite or virus in culture
Details: Dd2, 72 h
Description: Antiplasmodial activity against asexual blood-stage Plasmodium falciparum Dd2 using 2% haematocrit and 0.2% parasitemia assessed as reduction in fluorescence measured after 72 hrs by Malaria SYBR Green I-based Fluorescence (MSF) assay

q: Entry C(/NC1CCCCCC1)=C1/N=C(c2ccc[nH]2)C(Oc2ccccc2)=C1Oc1ccccc1 , system Plasmodium falciparum: what IC50 was measured?
a: > 2.5 µM

q: What about CCc1c(C(=O)NC2CCCCC2)[nH]c(-c2ccc(C)[nH]2)c1CC ?
a: > 2.5 µM

q: What about CCC1=C(CC)/C(=C/NC2CCCCC2)N=C1c1cc2cc(OC)ccc2[nH]1 ?
a: > 2.5 µM
